test system: SARS-CoV-2 TY8-612/β; assay: microbe, parasite or virus in culture; format: cell-based; conditions: Severe acute respiratory syndrome coronavirus 2, Vero C1008, read-out: EC50 β, individual assays
VALUE KIND: pEC50
One number for each entry, as −log10 of the molar value.

**Q:** Please indicate pEC50 recorded for CC(C)(C)[C@H](NC(=O)C(F)(F)F)C(=O)N1C[C@H]2[C@@H]([C@H]1C(=O)N[C@H](C#N)C[C@@H]1CCNC1=O)C2(C)C [Nirmatrelvir, reference compound]
**A:** 5.81

###

system: SARS-CoV-2 TY7-501/γ; test: microbe, parasite or virus in culture; assay type: cell-based; conditions: read-out: EC50 γ, Average
Assignment: determine reported EC50 for the given compounds.
I'd appreciate it if you included the unit after the number.

**Q:** Please indicate EC50 recorded for "CC(C)(C)[C@H](NC(=O)C(F)(F)F)C(=O)N1C[C@H]2[C@@H]([C@H]1C(=O)N[C@@H](C[C@@H]1CCNC1=O)C(=O)c1nc3c(F)cccc3s1)C2(C)C"
**A:** 56.1 nM

API: the following record is the query input.
**Q:** Please indicate EC50 recorded for "CC(C)(C)[C@H](NC(=O)C(F)(F)F)C(=O)N1C[C@H]2[C@@H]([C@H]1C(=S)N[C@@H](C[C@@H]1CCNC1=O)C(=O)c1nc3c(F)cccc3s1)C2(C)C"
**A:** 228 nM
